Give measured IC50 for each item. Keep answers brief.
# TARGET SYSTEM: human P2X3 receptor (Homo sapiens (Human))
# EXPERIMENT DESCRIPTION: Evaluation of human P2X3 receptor inhibitory activity (Fluo-3 calcium fluorescence, FDSS 3000, ATP stimulation)
# Format: cell-based
# ASSAY CONDITIONS: human P2X3 receptor, Test Example 1
Answers are plain numbers, in µM.

Cc1ccc(Cn2c(=O)n(C[C@H](C)C(=O)O)c(=O)[nH]/c2=N\c2ccc(Oc3ccc(O)nc3)cc2)cc1 [Compound I-1536] :: 0.024
Cc1ccc(Cn2c(=O)n(C[C@H](C)C(=O)O)c(=O)[nH]/c2=N\c2ccc(OC3CC3)cc2)cc1 [Compound I-1516] :: 0.049

Look up IC50 for the entries below, preserving their order.
1. CCOC(=O)CCn1c(=O)[nH]/c(=N\c2ccc3nc(CC)sc3c2)n(Cc2ccc(C)cc2)c1=O [Compound I-1506]
2. CCn1c(=O)[nH]/c(=N\c2ccc(Oc3cncc(C(N)=O)n3)cc2)n(Cc2ccc(C)cc2)c1=O [Compound I-2472]
3. CC(=O)NCCn1c(=O)[nH]/c(=N\c2ccc(Oc3ccon3)cc2)n(Cc2ccc(Cl)cc2)c1=O [Compound I-2524]
4. O=c1[nH]/c(=N\c2ccc(Oc3cccc(O)n3)cc2)n(Cc2ccc(Cl)cc2)c(=O)n1CC(CO)CO [Compound I-2685]
5. O=c1[nH]/c(=N\c2ccc(Oc3ccc4[nH]cnc4c3)cc2)n(Cc2ccc(Cl)cc2)c(=O)n1CCO [Compound I-2449]
6. CNC(=O)CCn1c(=O)[nH]/c(=N\c2ccc(Oc3cccc(F)n3)cc2)n(Cc2ccc(Cl)cc2)c1=O [Compound I-2655]

0.002
0.003
0.034
0.012
0.009
0.005

// each molecule listed below needs its IC50
1. CCn1c(=O)[nH]/c(=N\c2ccc(Oc3ccnc(CN(C)C)c3)cc2)n(Cc2ccc(Cl)cc2)c1=O [Compound I-2244]
2. CCOCc1ccc(/N=c2\[nH]c(=O)n(C[C@H](C)C(=O)O)c(=O)n2Cc2ccc(C)cc2)cc1Cl [Compound I-1502]

0.059
0.107

List the reported IC50 of each molecule below.
1. O=c1[nH]/c(=N\c2ccc(Oc3ccon3)cc2)n(Cc2ccc(Cl)cc2)c(=O)n1C[C@@H](O)CO [Compound I-2408]
2. CCn1c(=S)[nH]/c(=N\c2ccc(Oc3ccnc(O)c3)cc2)n(Cc2ccc(Cl)cc2)c1=O [Compound I-2258]
3. O=C(Cn1c(=O)[nH]/c(=N\c2ccc(Oc3ccon3)cc2)n(Cc2ccc(Cl)cc2)c1=O)NCC(F)(F)F [Compound I-2681]

1: 0.014; 2: 0.003; 3: 0.004

IC50 value, target or system human P2X3 receptor (Homo sapiens (Human)), for CNC(=O)Cn1c(=O)[nH]/c(=N\c2ccc(Oc3cccc(F)n3)cc2)n(Cc2ccc(Cl)cc2)c1=O [Compound I-2585] : 0.008

====

So I've got a bunch of compounds here, and I need their IC50 values.
# TARGET SYSTEM: human P2X3 receptor (Homo sapiens (Human), UniProt P56373)
# Sequence (P56373 whole entry): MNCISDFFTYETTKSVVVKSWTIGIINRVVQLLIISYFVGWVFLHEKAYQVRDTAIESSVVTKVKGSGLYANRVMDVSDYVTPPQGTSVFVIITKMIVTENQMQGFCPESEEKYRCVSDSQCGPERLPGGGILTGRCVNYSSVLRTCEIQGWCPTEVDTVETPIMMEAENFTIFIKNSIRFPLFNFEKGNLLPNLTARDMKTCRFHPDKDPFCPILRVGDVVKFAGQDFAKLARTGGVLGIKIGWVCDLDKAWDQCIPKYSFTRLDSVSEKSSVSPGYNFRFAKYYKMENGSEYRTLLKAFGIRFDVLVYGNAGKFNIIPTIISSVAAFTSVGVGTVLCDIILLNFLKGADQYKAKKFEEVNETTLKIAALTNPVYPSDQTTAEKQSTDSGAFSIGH
# EXPERIMENT DESCRIPTION: Evaluation of human P2X3 receptor inhibitory activity (Fluo-3 calcium fluorescence, FDSS 3000, ATP stimulation);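 also: stimulus was 50 nM ATP with fluorescence followed for 3 min, and the response per well was peak post-ATP fluorescence divided by the reading at measurement start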
# Format: cell-based
# ASSAY CONDITIONS: C6BU-1 cells stably expressing human P2X3 receptor, Fluo-3 fluorescence, FDSS 3000
Answers are plain numbers, in nM.

Record excerpt, results attached:
Cc1ccc(Cn2c(=O)n(C[C@H](C)C(=O)O)c(=O)[nH]/c2=N\c2ccc(OCC(C)(C)C)cc2)cc1 :: 257
COC(=O)[C@H](C)[C@H](C)n1c(=O)[nH]/c(=N\c2ccc(OCC3CC3)cc2)n(Cc2ccc(C)cc2)c1=O :: 21

Now consider the entry below.
IC50 reported for this compound COC(=O)[C@@H](C)Cn1c(=O)[nH]/c(=N\c2ccc(OCC(C)(C)C)cc2)n(Cc2ccc(C)cc2)c1=O : 389

The measured values listed here are drawn from patent US9718790B2.
